Measured PBM binding z-score, listed per entry.
test system: VDR:RXRa (NR concentration 270 nM, RXRa partner concentration 90 nM); experiment: PBM binding z-score (relative to random genomic background probes); higher = stronger binding; sequences stand for … in GC…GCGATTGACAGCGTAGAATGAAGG

- chain: "TGAATGAGGTTATAAGATCAGGAAACGTTGCAAA"
  measurement target: "VDR:RXRa (NR concentration 270 nM, RXRa partner concentration 90 nM)"
  PBM binding z-score: 1.01
- chain: "CAAACTAGGTCAAGTGGTCAAAGTCCGCTTCCCG"
  measurement target: "VDR:RXRa (NR concentration 270 nM, RXRa partner concentration 90 nM)"
  PBM binding z-score: 2.52
- chain: "CGAACTTGGTCATCCAGGACAGTGAATACATTGA"
  measurement target: "VDR:RXRa (NR concentration 270 nM, RXRa partner concentration 90 nM)"
  PBM binding z-score: 1.59
- chain: "ATCTCTAGGTAACCAAGTTCAGTGACTGCCGAAC"
  measurement target: "VDR:RXRa (NR concentration 270 nM, RXRa partner concentration 90 nM)"
  PBM binding z-score: 4.15
- chain: "CCTTACGGTTCACGAGGTTATAGCACGACGAGCG"
  measurement target: "VDR:RXRa (NR concentration 270 nM, RXRa partner concentration 90 nM)"
  PBM binding z-score: 4.12
- chain: "CCGACTGGGGCAAAGCTTACCATACTCAGTACGA"
  measurement target: "VDR:RXRa (NR concentration 270 nM, RXRa partner concentration 90 nM)"
  PBM binding z-score: -0.585
- chain: "TCTCGTAGATCAATAGAGGTTAAGAAAGTGCGCT"
  measurement target: "VDR:RXRa (NR concentration 270 nM, RXRa partner concentration 90 nM)"
  PBM binding z-score: 1.68
- chain: "CCAGACAGGTGTGAAGGTAACTCAGCCTCGATTA"
  measurement target: "VDR:RXRa (NR concentration 270 nM, RXRa partner concentration 90 nM)"
  PBM binding z-score: -0.322
- chain: "CCTCAGAGGACAGAAGGTCAGAGCTGTCCGCTTT"
  measurement target: "VDR:RXRa (NR concentration 270 nM, RXRa partner concentration 90 nM)"
  PBM binding z-score: 1.07
- chain: "TTACCACGGTGAGCTGAGGTCGTTGATCCAACTC"
  measurement target: "VDR:RXRa (NR concentration 270 nM, RXRa partner concentration 90 nM)"
  PBM binding z-score: 1.57
- chain: "CTCGAAAGGTCGTGCTCAGGTGAGTGTACCAAAC"
  measurement target: "VDR:RXRa (NR concentration 270 nM, RXRa partner concentration 90 nM)"
  PBM binding z-score: 3.44
- chain: "CCTACTGGGCAAAGGTCATTGATCAGTCAAAGCA"
  measurement target: "VDR:RXRa (NR concentration 270 nM, RXRa partner concentration 90 nM)"
  PBM binding z-score: 4.36
- chain: "TGTCAAAGTTCAAGGGTAACGTAAGTATCCACAC"
  measurement target: "VDR:RXRa (NR concentration 270 nM, RXRa partner concentration 90 nM)"
  PBM binding z-score: 4.26
- chain: "CGCACTAGGTCAAGGACAGTGAATCTCCGCACGC"
  measurement target: "VDR:RXRa (NR concentration 270 nM, RXRa partner concentration 90 nM)"
  PBM binding z-score: 1.28
- chain: "TCTATTAGTTGAAGGGCAACCGCCGAGTCCGTTT"
  measurement target: "VDR:RXRa (NR concentration 270 nM, RXRa partner concentration 90 nM)"
  PBM binding z-score: 0.974
- chain: "CCGACTGGGGCAGAAAGGTTACCATTCCATCCGG"
  measurement target: "VDR:RXRa (NR concentration 270 nM, RXRa partner concentration 90 nM)"
  PBM binding z-score: 0.567
- chain: "CTCGAAAGGTCGTGCTCAGGTGCGTATACCAAAC"
  measurement target: "VDR:RXRa (NR concentration 270 nM, RXRa partner concentration 90 nM)"
  PBM binding z-score: 3.57
- chain: "CTCGAAAGGTCGTGCTCAGGTCAGTATACCAAAC"
  measurement target: "VDR:RXRa (NR concentration 270 nM, RXRa partner concentration 90 nM)"
  PBM binding z-score: 5.19
- chain: "CGTTCAAGGTCAGAGAGGTCAGTGAATGCCGAGT"
  measurement target: "VDR:RXRa (NR concentration 270 nM, RXRa partner concentration 90 nM)"
  PBM binding z-score: 7.5
